- TARGET_DESC: angiotensin II AT1 receptor
- TEST_PROTOCOL: Assay A: Angiotensin II binding activity (125I-AII displacement, rat uterine membrane preparation)
OUTCOME_MEASURE: IC50

What IC50 value was documented for this compound, CCCCc1cn(-c2ccccc2CC)c(=O)n1Cc1ccc(-c2ccccc2-c2nnn[nH]2)cc1 ?
0.014 µM

Consider the compound shown here: CCCCn1nc(C(C)=O)nc1Cc1ccc(-c2ccccc2-c2nnn[nH]2)nc1 What is its recorded IC50?
0.39 µM

Form field: reported IC50 of CCCCc1nc(C)nn1Cc1ccc(-c2ccccc2C(=O)O)cc1
0.48 µM

Look at this compound and give its reported IC50. CCCCc1nc(CC)n(Cc2ccc(-c3ccccc3-c3nnn[nH]3)cc2)n1
0.083 µM

---

Measured Kb of individual entries
- System: rabbit aortic rings
- TEST_PROTOCOL: Assay B: In vitro vascular smooth muscle response for AII (antagonist activity, pA2)
- Assay type: cell-based
- CONDITION_DETAILS: Oryctolagus cuniculus, in vitro vascular smooth muscle response; two values per cell separated by / are separate determinations; read-out: Assay B pA2 (converted)
- Procedure: Assay B: In Vitro Vascular Smooth Muscle-response for AII The compounds of the invention were tested for antagonist activity in rabbit aortic rings. […] Angiotensin II concentration-response curves were then recorded (3×10^−10 to 1×10^−5 M). […] The effectiveness of the test compound was expressed in terms of pA2 values and were calculated according to H. O. Schild [Br. J. Pharmacol, Chemother., 2,189-206 (1947)]. […] Each test antagonist was evaluated in aorta rings from two rabbits.
Numbers only; they are read as nM.

Examples with answers:
CCCCc1nn(CCCC)c(=O)n1Cc1ccc(-c2ccccc2C(=O)O)cc1 :: 100
CCCCc1nc(C(F)(F)Cc2ccccc2)nn1Cc1ccc(-c2ccccc2-c2nnn[nH]2)cc1 :: 4.07
CCCCc1nn(CC(=O)c2cc(OC)ccc2OC)c(=O)n1Cc1ccc(-c2ccccc2-c2nn[nH]n2)cc1 :: 10
CCCCc1cn(CCc2cccs2)c(=O)n1Cc1ccc(-c2ccccc2-c2nnn[nH]2)cc1 :: 0.501

# query: Kb of entry CCCCc1nc2c(O)nncc2n1Cc1ccc(-c2ccccc2-c2nnn[nH]2)cc1
316

Please give the measured Kb for this compound: CCCCc1nn(CC(OCc2ccccc2)c2ccccc2)c(=O)n1Cc1ccc(-c2ccccc2-c2nn[nH]n2)cc1 (centres unmarked)
20

Could you tell me which Kb is on file for CCCCc1nc(C2CCCCC2)n(Cc2ccc(-c3ccccc3-c3nnn[nH]3)cc2)n1 ?
14.1

Could you tell me which Kb is on file for CCCCn1nc(CCc2ccccc2)nc1Cc1ccc(-c2ccccc2-c2nnn[nH]2)nc1 ?
17.4

---

- System: pressor response to AII
- TEST_PROTOCOL: Assay C: In vivo intragastric pressor assay response for AII antagonists
- Set-up: species or system rat
- CONDITION_DETAILS: Rattus norvegicus, dose 30 mg/kg, intragastric, or intraduodenal for examples listed
OUTCOME_MEASURE: inhibition at 30 mg/kg (%)
Entry rule: numbers only, all in %.

CCCCc1nc(C(F)(F)CCC)nn1Cc1ccc(-c2ccccc2-c2nnn[nH]2)cc1 [compound 10] :: 100
CCCCc1nc(Cl)nn1Cc1ccc(-c2ccccc2-c2nnn[nH]2)cc1 [compound 7] :: 90
CCCCc1nc2c(O)nnc(O)c2n1Cc1ccc(-c2ccccc2-c2nnn[nH]2)cc1 [Compound 111] :: 87
CCCCc1nc(C(=O)CCC)nn1Cc1ccc(-c2ccccc2-c2nnn[nH]2)cc1 [Compound 30] :: 50
CCCCc1nc(CCCC)n(Cc2ccc(-c3ccccc3-c3nnn[nH]3)cc2)n1 [compound 3] :: 100

Form: Entry = CCCCc1nc(CCCC)n(Cc2ccc(-c3ccccc3C(=O)NNS(=O)(=O)C(F)(F)F)cc2)n1 [compound 5] | System = pressor response to AII | inhibition at 30 mg/kg = ____
38
